target: phosphordiesterase; assay: phosphordiesterase inhibition
Listed below: IC50 values for each entry.
Your answer should be a plain number; it is taken to be in µM.

Below are worked cases with known answers.
MOLECULE: O=c1[nH]c2ccc(O)nc2n2cccc12 [Example I]
QUANTITY UNIT: µM
IC50: 32.2
//
MOLECULE: CNC(=O)CCCOc1ccc2[nH]c(=O)c3cccn3c2n1 [Example 98]
QUANTITY UNIT: µM
IC50: 15.1

Look up IC50 with phosphordiesterase for this molecule: CN(C(=O)CCCCOc1ccc2[nH]c(=O)c3cccn3c2n1)C1CCCCC1 [D 20169]
7.34
